# test.description: Half life in human hepatocytes
# Type: ADME, cell-based, Hepatocyte
readout.label: half-life (min)
Numeric only. Scale: min

1. O=C(c1nn2c(C(F)(F)F)cc(C3CC3)cc2c1Cl)N1CCC2(OCC3(CC3)CO2)[C@H](O)C1    50
2. O=C(c1nn2c(C(F)(F)F)cc(C3CC3)cc2c1Cl)N1CCC2(CC1)OCC1(CC1)CO2    30
3. CN1C[C@@]2(CCN(C(=O)c3nn4c(C(F)(F)F)cc(C5CC5)cc4c3Cl)C[C@@H]2O)OC1=O    123

Next up:
Dear colleague, I am looking for the recorded half-life of the following compound: `CN1CC2(CCN(C(=O)c3nn4c(C(F)(F)F)cc(C5CC5)cc4c3Cl)CC2)OC1=O`
66
